Molecular target: dnHEM1 (synthetic construct, UniProt Z9V042XZY6)
Construct: de novo alpha-helical closed solenoid (toroid) from designed scaffold PDB 4YXX, redesigned with Rosetta, surface desymmetrized by K29W and K165Y (already part of dnHEM1); monomer
Sequence (Z9V042XZY6 1-210): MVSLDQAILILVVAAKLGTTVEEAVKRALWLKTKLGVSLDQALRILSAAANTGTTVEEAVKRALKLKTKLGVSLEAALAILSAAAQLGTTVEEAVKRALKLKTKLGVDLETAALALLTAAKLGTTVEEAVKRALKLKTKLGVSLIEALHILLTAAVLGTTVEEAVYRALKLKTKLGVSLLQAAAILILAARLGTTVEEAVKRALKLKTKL
Assay: UV/Vis titration of hemin into apo-protein, absorbance at […] nm
Endpoint Label: Kd

I am curious: what Kd value has been reported for `C=CC1=C(C)C2=Cc3c(C=C)c(C)c4[n]3[Fe]([Cl])[n]3c(c(C)c(CCC(=O)O)c3=CC3=NC(=C4)C(C)=C3CCC(=O)O)=CC1=N2` ?
2.5 nM
